measurement description: qHTS of TDP-43 Inhibitors; further: % of control where 0% means no effect; nearly all actives have a fitted effect of over 50% in size
condition: TDP-43 expressing yeast growth rescue, BacTiter-Glo, 24 h; series mostly up to 46.1 µM
In all, about 410,000 compounds went through this assay and about 7,200 (1.8%) were called active. Not shown: some 7% with an inconclusive outcome. The entries come from a sample that favours actives as a whole.
Documented growth rescue (activation) across a set of molecules

Reference set (8 entries):
CCOC(=O)c1ccc[n+](CC(=O)Nc2ccccc2OC(F)F)c1 ... 1.27% [at 0.397 µM] (inactive)
COc1ccc2c(c1)C=C(C(=O)NCc1cc(Br)ccc1OC)CO2 ... 5.98% [at 9.22 µM] (inactive)
COc1ccc(CCNS(=O)(=O)c2cccc([N+](=O)[O-])c2)cc1 ... -3.92% [at 1.82 µM] (inactive)
O=C(CSc1nccn1Cc1ccc(Cl)cc1)NCc1ccccc1 ... 9.99% [at 9.22 µM] (inactive)
CC(=O)Oc1ccc(-c2cccc(C(=O)N3CCCCC3)c2)cc1 ... -16% [at 1.82 µM] (inactive)
COC(=O)c1cnn(-c2ccc(C(=O)Nc3ccc(OC(F)(F)F)cc3)cc2)c1N ... 12.1% [at 9.22 µM] (inactive)
COc1ccc(C2CC(=O)Nc3c2c(=O)nc2c(C)cccn32)cc1OC (stereo unspecified) ... 25.6% [at 9.22 µM] (inactive)
CC(Cc1cccs1)NC(=O)c1cccc(Cl)c1 (stereo unspecified) ... -15.2% [at 0.397 µM] (inactive)

Find the recorded growth rescue (activation) belonging to COc1ccc2c(c1)C(c1cccs1)=NNC(c1cccnc1)=N2 and report it.
-15% [at 9.22 µM] (inactive)

Find the recorded growth rescue (activation) belonging to Cc1c(Br)ccc(NC(=O)COc2ccccc2C(N)=O)c1C and report it.
10.9% [at 9.22 µM] (inactive)

Find the recorded growth rescue (activation) belonging to CC(C)(C)c1ccc(C(=O)Nc2ccc3c(c2)CCCN3C(=O)c2cccs2)cc1 and report it.
18.3% [at 9.22 µM] (inactive)

Value source: PubChem BioAssay AID652104
